We begin with a simple list: items and their reported IC50.
target: AKT1 E17K (Homo sapiens, UniProt P31749, E17K); construct: Purified human recombinant kinase full-length AKT1 E17K was expressed in insect cells; experiment: AKT1 E17K kinase assay (TR-FRET, Lance); conditions: full-length human recombinant AKT1 E17K activated by PDPK1; Ulight-CREBtide substrate; either 50 μM ATP or 2 mM ATP
Sequence (P31749 whole entry E17K): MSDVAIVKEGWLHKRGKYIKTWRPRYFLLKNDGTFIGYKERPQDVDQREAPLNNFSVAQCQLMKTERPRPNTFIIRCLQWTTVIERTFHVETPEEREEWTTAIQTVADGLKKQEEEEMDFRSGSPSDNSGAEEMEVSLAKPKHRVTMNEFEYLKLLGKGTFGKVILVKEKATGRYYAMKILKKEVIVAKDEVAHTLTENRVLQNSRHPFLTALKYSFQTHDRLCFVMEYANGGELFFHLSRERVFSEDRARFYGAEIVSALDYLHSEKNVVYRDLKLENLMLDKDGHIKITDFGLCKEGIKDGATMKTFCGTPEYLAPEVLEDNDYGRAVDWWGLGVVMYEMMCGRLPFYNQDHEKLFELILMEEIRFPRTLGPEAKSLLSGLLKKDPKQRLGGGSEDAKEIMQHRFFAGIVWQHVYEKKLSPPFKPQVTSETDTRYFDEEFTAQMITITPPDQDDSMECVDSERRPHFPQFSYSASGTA

The molecule listed as Nc1ncccc1-c1nc2ccc(-c3ccccc3)nc2n1-c1ccc(C2CN(C[C@H]3CC[C@@H](c4nsc(=O)[nH]4)CC3)C2)cc1 shows IC50 equal to ≥ 500 nM

Given item Cc1nc(NC(=O)[C@H]2CC[C@H](c3nsc(=O)[nH]3)CC2)ccc1-n1c(-c2cccnc2N)nc2ccc(-c3ccccc3)nc21 , the value recorded as its IC50 is ≥ 500 nM

The molecule Cc1cc(O)n(-c2ccc(C(=O)NCc3ccc(-n4c(-c5cccnc5N)nc5ccc(-c6ccccc6)nc54)cc3)cc2F)n1 showed IC50 equal to 50 to 200 nM

Notebook: CN(Cc1ccc(-n2c(-c3cccnc3N)nc3ccc(-c4ccccc4)nc32)cc1)[C@H]1CC[C@@H](c2nsc(=O)[nH]2)CC1 , IC50 read as 50 to 200 nM

Please fill in: IC50 reported for Cc1cc(O)n(-c2ccc(C(=O)N3CC(c4ccc(-n5c(-c6cccnc6N)nc6ccc(-c7ccccc7)nc65)cc4)C3)cc2)n1 = < 50 nM

What the record says about Cc1cc(O)n(-c2cccc(C(=O)NCc3ccc(-n4c(-c5cccnc5N)nc5ccc(-c6ccccc6)nc54)cc3)c2)n1 : IC50 is ≥ 500 nM

Origin of values: patent US20260200921A1
